test system: DU-145 prostate; assay: NCI tumour cell line growth inhibition, 48 h
Assay Endpoint: TGI (µM)

• CN(C)CCCCn1ccc2c1C(=O)c1c(c(O)c3ccccc3c1O)C2=O = 41.9
• Cc1ccc2nc(-c3ccc(N)c4ccccc34)[nH]c2c1 = 24.8
• COC(=O)[C@]12CC[C@@H](C)[C@H](C)[C@@H]1C1=CC[C@@H]3[C@@]4(C)C(C=O)=C[C@@](C)(COS(C)(=O)=O)C4[C@H](O)C[C@@]3(C)[C@]1(C)CC2 (stereo not given in full) = 3.41

* * *

tested on: OVCAR-5 ovarian; assay: NCI tumour cell line growth inhibition, 48 h
Measured TGI, listed per entry.
Assay Endpoint: TGI

- Cc1cc(C)c(S(=O)(=O)N(CCc2cccc(Br)c2)Cc2ccc(-c3cccc(S(C)(=O)=O)c3)cc2)c(C)c1: > 100 µM
- CC(=O)/C=C1\CC(=O)Nc2ccccc2N1: > 100 µM
- CCOc1nccc2c1nc(-c1nonc1N)n2CC: > 25 µM
- O=C(N/N=C(/COc1ccccc1Cl)N=Cc1ccncc1)c1ccncc1: > 100 µM
- COc1cc2c(cc1OC)[C@@](C)(C(O)C(O)C(C)(C)O)NCC2 (some centres undefined): > 100 µM
- CCOC(=O)c1[nH]c2cccc3c2c1CC[C@H](NC(=O)C(F)(F)F)C3=O: > 100 µM
- COc1cc(C2CC(=O)Nc3c2ccc2ccccc32)cc(Br)c1OC (centres undefined): > 79.3 µM
- N#CC[N+]1(Cc2ccccn2)CCCC1: > 100 µM
- COC(=O)NC(Cc1ccccc1)NC(C)=O (centres undefined): > 100 µM
- NC(=O)c1ccccc1NC(=O)c1ccccc1Cl: > 100 µM
- N[C@H](CCC(=O)NCP(=O)(O)O)C(=O)O: > 100 µM
- CC(C)(C)OC(=O)N1[C@@H]2Cc3ccc(N)cc3[C@@]1(C)c1ccccc12: > 100 µM
- N#Cc1nc2c(S(=O)(=O)c3ccccc3)c(N)n(Cc3ccc(Cl)cc3)c2nc1C#N: > 50 µM
- Cc1ccc(C2=C(c3ccc(C)cc3)C(c3ccc(C)cc3)=C(c3ccc(C)cc3)C2=O)cc1: > 100 µM

* * *

tested on: A498 renal; experiment: NCI tumour cell line growth inhibition, 48 h
Assay Endpoint: TGI (µM)

* NS(=O)(=O)c1ccc(-n2ncc3c(Nc4ccccc4)ncnc32)cc1 | 92.7
* Cc1ccc2nc(-c3ccc(N)c4ccccc34)[nH]c2c1 | 16.7

* * *

system: EKVX NSCLC; experiment: NCI tumour cell line growth inhibition, 48 h
Measured TGI, listed per entry.
Assay Endpoint: TGI

* N=c1oc2ccccc2cc1-c1nc2ccccc2c(=O)[nH]1 | > 100 µM
* O=S(=O)(NC1=NCCN1C(=S)SN1CCn2c1nsc2=S)c1ccccc1Cl | > 100 µM
* CCCN(CCC)C1CCc2c(ccc3cc[nH]c23)C1 (stereo not given) | > 100 µM
* CCN(CC)CCOc1ccc(C(O)(Cc2ccc(OC)cc2)c2ccccc2)cc1 (stereo not given) | 80.6 µM
* COC(=O)[C@H](C)NC(=O)[C@@H](OC)[C@@H]1Cc2cc3cc(OC4CC(OC5CC(O)C(O)C(C)O5)C(O)C(C)O4)c(C)c(O)c3c(O)c2C(=O)[C@H]1OC1CC(OC2CC(OC3CC(C)(O)C(O)C(C)O3)C(O)C(C)O2)C(O)C(C)O1 (stereo not given in full) | 35.5 µM
* C[C@@H](COCCC(=O)N1CCN(c2ncc(C(F)(F)F)cn2)CC1)Nc1cn[nH]c(=O)c1C(F)(F)F | > 100 µM
* CC(NC(=O)C(=O)N/N=C1\C[C@@H](c2ccccc2)Nc2ccccc21)c1ccccc1 (stereo not given in full) | > 100 µM
* Cc1c2ccccc2c(C)n2c1nc1ccccc12 | 54.9 µM
* O=C(CCSc1ccnc2c(C(F)(F)F)cccc12)N/N=C/c1cc(Cl)c(Cl)cc1Cl | > 100 µM
* CS/C(c1ccccc1)=[N+](\[O-])Cc1ccccc1 | > 100 µM
